# Tested on: E. coli mL308 225
# method: In Vitro Anti-Bacterial Activity Assay (MIC), gram negative
# Format: cell-based
# condition.description: Escherichia coli, ML308225, 18 h, gram negative bacteria; read-out: Antibiotic Activity Gram − (MIC)
# reported MIC; entries follow
quantity.name: MIC

# molecule, result
rows = [
    ("CCNCc1cc(N(C)C)c2c(c1O)C(=O)C1=C(O)[C@]3(O)C(=O)C(C(N)=O)=C(O)[C@@H](N(C)C)[C@@H]3C[C@@H]1C2", "> 4 µg/mL"),
    ("CN(C)c1cc(CN2CCCCCC2)c(O)c2c1C[C@H]1C[C@H]3[C@H](N(C)C)C(O)=C(C(N)=O)C(=O)[C@@]3(O)C(O)=C1C2=O", "< 4 µg/mL"),
    ("CN(C)c1cc(CNCc2ccccc2F)c(O)c2c1C[C@H]1C[C@H]3[C@H](N(C)C)C(O)=C(C(N)=O)C(=O)[C@@]3(O)C(O)=C1C2=O", "> 4 µg/mL"),
    ("CCc1cc(C(C)(C)C)c(O)c2c1C[C@H]1C[C@H]3[C@H](N(C)C)C(O)=C(C(=O)NC(C)(C)C)C(=O)[C@@]3(O)C(O)=C1C2=O", "> 4 µg/mL"),
    ("CN(C)[C@@H]1C(O)=C(C(N)=O)C(=O)[C@@]2(O)C(O)=C3C(=O)c4c(O)ccc(/C=C/c5ccc(C(F)(F)F)cc5)c4C[C@H]3C[C@@H]12", "> 4 µg/mL"),
    ("CN(C)[C@@H]1C(O)=C(C(N)=O)C(=O)[C@@]2(O)C(O)=C3C(=O)c4c(O)ccc(-c5cccc(NC(=O)c6ccno6)c5)c4C[C@H]3C[C@@H]12", "> 4 µg/mL"),
    ("CN(C)[C@@H]1C(O)=C(C(N)=O)C(=O)[C@@]2(O)C(O)=C3C(=O)c4c(O)ccc(-c5cnccn5)c4C[C@H]3C[C@@H]12", "< 4 µg/mL"),
    ("CN(C)C(=O)CNc1cc(N(C)C)c2c(c1O)C(=O)C1=C(O)[C@]3(O)C(=O)C(C(N)=O)=C(O)[C@@H](N(C)C)[C@@H]3C[C@@H]1C2", "> 4 µg/mL"),
    ("CN(C)c1cc(C#CC2=CCCC2)c(O)c2c1C[C@H]1C[C@H]3[C@H](N(C)C)C(O)=C(C(N)=O)C(=O)[C@@]3(O)C(O)=C1C2=O", "< 4 µg/mL"),
    ("CN(C)[C@@H]1C(O)=C(C(N)=O)C(=O)[C@@]2(O)C(O)=C3C(=O)c4c(O)ccc(C(=O)CN5CCCCC5)c4C[C@H]3C[C@@H]12", "< 4 µg/mL"),
    ("CN(C)c1cc(CN2CCC3CCCCC3C2)c(O)c2c1C[C@H]1C[C@H]3[C@H](N(C)C)C(O)=C(C(N)=O)C(=O)[C@@]3(O)C(O)=C1C2=O (some centres unmarked)", "< 4 µg/mL"),
    ("CN(C)CCN(Cc1ccccc1)Cc1ccc(-c2cc(N(C)C)c3c(c2O)C(=O)C2=C(O)[C@]4(O)C(=O)C(C(N)=O)=C(O)[C@@H](N(C)C)[C@@H]4C[C@@H]2C3)o1", "> 4 µg/mL"),
    ("C[C@H]1c2ccc(CN3CCCCC3)c(O)c2C(=O)C2=C(O)[C@]3(O)C(=O)C(C(N)=O)=C(O)[C@@H](N(C)C)[C@@H]3[C@@H](O)[C@@H]21", "< 4 µg/mL"),
    ("CN(C)[C@@H]1C(O)=C(C(N)=O)C(=O)[C@@]2(O)C(O)=C3C(=O)c4c(O)ccc(-n5cccn5)c4C[C@H]3C[C@@H]12", "< 4 µg/mL"),
    ("COc1ccc(CNCCc2ccccc2)cc1-c1ccc(O)c2c1C[C@H]1C[C@H]3[C@H](N(C)C)C(O)=C(C(N)=O)C(=O)[C@@]3(O)C(O)=C1C2=O", "< 4 µg/mL"),
    ("CCONC(C)c1ccc(O)c2c1C[C@H]1C[C@H]3[C@H](N(C)C)C(O)=C(C(N)=O)C(=O)[C@@]3(O)C(O)=C1C2=O (some centres unmarked)", "< 4 µg/mL"),
    ("CN(C)[C@@H]1C(O)=C(C(N)=O)C(=O)[C@@]2(O)C(O)=C3C(=O)c4c(O)c(C(C)(C)C)cc(-c5ccc6c(c5)OCO6)c4C[C@H]3C[C@@H]12", "> 4 µg/mL"),
    ("CCCCOC1C(C(N)=O)=C(O)[C@@H](N(C)C)[C@@H]2[C@@H](O)[C@H]3C(=C(O)[C@]12O)C(=O)c1c(O)cccc1[C@@H]3C (some centres unmarked)", "> 4 µg/mL"),
    ("C[C@H]1c2ccc(-c3ccc(C=O)cc3)c(O)c2C(=O)C2=C(O)[C@]3(O)C(=O)C(C(N)=O)=C(O)[C@@H](N(C)C)[C@@H]3[C@@H](O)[C@@H]21", "< 4 µg/mL"),
    ("CN(C)[C@@H]1C(O)=C(C(N)=O)C(=O)[C@@]2(O)C(O)=C3C(=O)c4c(O)ccc(-c5ccoc5)c4C[C@H]3C[C@@H]12 [drawing 3429]", "< 4 µg/mL"),
    ("CN(C)[C@@H]1C(O)=C(C(N)=O)C(=O)[C@@]2(O)C(O)=C3C(=O)c4c(ccc(NCCNC(C)(C)C)c4O)C[C@H]3C[C@@H]12", "< 4 µg/mL"),
    ("CN(C)[C@@H]1C(O)=C(C(N)=O)C(=O)[C@@]2(O)C(O)=C3C(=O)c4c(ccc(NC5CCN(Cc6ccccc6)CC5)c4O)C[C@H]3C[C@@H]12", "> 4 µg/mL"),
    ("Cc1cc(-c2ccc(O)c3c2C[C@H]2C[C@H]4[C@H](N(C)C)C(O)=C(C(N)=O)C(=O)[C@@]4(O)C(O)=C2C3=O)ccc1F", "< 4 µg/mL"),
]
